// reported mass density for each item listed
Conditions: 293.15 K; 10000 kPa; Liquid; Vibrating tube method
MEASUREMENT_LABEL: mass density (kg/m3)

| COMPOUND | RESULT_VALUE |
| --- | --- |
| C=C(C)C(=O)OCCN(C)C [2-(dimethylamino)ethyl methylpropenoate] | 940.43 |
| CCCCO | 816.54 |
| CCCO | 811.02 |
| CO | 800.41 |
| CCO | 797.51 |
| CCCCCO | 822.19 |

###

Conditions: 313.15 K; 25000 kPa; Liquid; Vibrating tube method
// reported mass density for each item listed
MEASUREMENT_LABEL: mass density (kg/m3)

| COMPOUND | RESULT_VALUE |
| --- | --- |
| C=C(C)C(=O)OCCN(C)C [2-(dimethylamino)ethyl methylpropenoate] | 933.48 |
| CCCO | 806.72 |
| CCCCO | 812.49 |
| CCCCCO | 818.26 |
| CCO | 793.47 |
| CO | 795.59 |

Data credit: the NIST ThermoML archive (doi:10.1021/acs.jced.8b00975)
